Data credit: paper PMC5719074

Molecular target: human 20S proteasome T-L activity
Details: read-out: IC50 T-L; 2 nM 20S, 30 min at 37°C, 100 µM substrate
observable: IC50
In your response, put the unit directly after the numeric value.

The molecule C[n+]1ccc(-c2c3nc(c(-c4cc[n+](C)cc4)c4ccc([nH]4)c(-c4cc[n+](C)cc4)c4nc(c(-c5cc[n+](C)cc5)c5ccc2[nH]5)C=C4)C=C3)cc1 [compound 1] showed IC50 equal to 640 nM
